biological target: Vasoactive intestinal polypeptide receptor 2 (Homo sapiens); test: Antagonist activity at recombinant human N-terminal signal peptide/FLAG epitope-tagged VIPR2 expressed in HEK293 cells co-expressing CAMYEL assessed as inhibition of VIP-induced cAMP accumulation at 1 uM preincubated for 5 mins with luciferin, coelenterazine H followed by VIP addition measured after 5 mins by BRET assay relative to control; type: functional, cell-based
# binarize inhibition: threshold 10% inclusive, high side Met, low side Not met

Please indicate if the recorded inhibition for `CCN(CC)C(=O)[C@@H](Cc1ccccc1)C[C@H](O)CNS(=O)(=O)c1ccc([N+](=O)[O-])cc1` meets or exceeds 10%.
Not met

And the next one, `O=C(NC1CCCCCC1)[C@H](Cc1ccccc1)C[C@H](O)CNS(=O)(=O)c1ccc([N+](=O)[O-])cc1` ?
Not met

And the next one, `O=C(NCc1ccccc1)[C@H](Cc1ccccc1)C[C@H](O)CNS(=O)(=O)c1ccc([N+](=O)[O-])cc1` ?
Not met

And the next one, `Cc1cc(S(=O)(=O)NC[C@@H](O)C[C@@H](Cc2ccccc2)C(=O)N[C@H]2c3ccccc3C[C@H]2O)c(C)cc1Cl` ?
Met

And the next one, `CCN(CC)C(=O)[C@H](Cc1ccccc1)C[C@H](O)CNS(=O)(=O)c1ccc([N+](=O)[O-])cc1` ?
Not met

And the next one, `CC(C)C(=O)Nc1ccc(S(=O)(=O)NC[C@@H](O)C[C@@H](Cc2ccccc2)C(=O)N[C@H]2c3ccccc3C[C@H]2O)cc1` ?
Not met

And the next one, `CN(C)c1ccc(S(=O)(=O)NC[C@@H](O)C[C@@H](Cc2ccccc2)C(=O)N[C@H]2c3ccccc3C[C@H]2O)cc1` ?
Not met

And the next one, `O=C(NC[C@@H](O)C[C@@H](Cc1ccccc1)C(=O)N[C@H]1c2ccccc2C[C@H]1O)c1ccccc1[N+](=O)[O-]` ?
Met

And the next one, `O=C(NC[C@@H](O)C[C@@H](Cc1ccccc1)C(=O)N[C@H]1c2ccccc2C[C@H]1O)c1cccc(Br)c1` ?
Met

And the next one, `O=C(NC[C@@H](O)C[C@@H](Cc1ccccc1)C(=O)N[C@H]1c2ccccc2C[C@H]1O)c1cccnc1` ?
Met

And the next one, `COc1ccc(S(=O)(=O)NC[C@@H](O)C[C@@H](Cc2ccccc2)C(=O)N[C@H]2c3ccccc3C[C@H]2O)cc1OC` ?
Met

And the next one, `O=C(N[C@H]1c2ccccc2C[C@H]1O)[C@H](Cc1ccccc1)C[C@H](O)CNS(=O)(=O)c1ccccc1F` ?
Met

And the next one, `CC(C)Nc1ccc(S(=O)(=O)NC[C@@H](O)C[C@@H](Cc2ccccc2)C(=O)N[C@H]2c3ccccc3C[C@H]2O)cc1` ?
Met

And the next one, `O=C(NC1CCCC1)[C@H](Cc1ccccc1)C[C@H](O)CNS(=O)(=O)c1ccc([N+](=O)[O-])cc1` ?
Not met

And the next one, `CC(C)CS(=O)(=O)NC[C@@H](O)C[C@@H](Cc1ccccc1)C(=O)N[C@H]1c2ccccc2C[C@H]1O` ?
Met

And the next one, `O=C(NC[C@@H](O)C[C@@H](Cc1ccccc1)C(=O)N[C@H]1c2ccccc2C[C@H]1O)c1ccc2ccccc2c1` ?
Met
